Data provenance: patent US20240368150A1

Notes on EC50 obtained with primary human T-cells.

- compound: "COC1(c2nnc(-c3ccc4c(c3)N(Cc3ccc(Cl)cc3)C(=O)[C@@H](N)CS4(=O)=O)o2)CCOCC1"
  readout units: "µM"
  sign qualifier: ">"
  EC50: 10
- compound: "CC(Nc1nnc(-c2cc3c(cc2F)S(=O)(=O)C[C@H](N)C(=O)N3Cc2ccc(Cl)cc2)o1)C(F)(F)F (stereo partly shown)"
  readout units: "µM"
  sign qualifier: "="
  EC50: 0.724
- compound: "CC(C)(C)c1nnc(-c2cc3c(cc2F)S(=O)(=O)C[C@H](N)C(=O)N3Cc2ccc(Cl)nn2)o1"
  readout units: "µM"
  sign qualifier: ">"
  EC50: 10
- compound: "N[C@H]1CS(=O)(=O)c2cc(F)c(-c3nnc(N4CCC4)o3)cc2N(Cc2ccc(Cl)cc2)C1=O"
  readout units: "µM"
  sign qualifier: "="
  EC50: 11.4
- compound: "CC(C)Oc1ccc(CN2C(=O)[C@@H](N)CS(=O)(=O)c3cc(F)c(-c4nnc(C(C)(C)C)o4)cc32)cc1"
  readout units: "µM"
  sign qualifier: "="
  EC50: 0.0595
- compound: "CC(=O)N1CCCC(n2nnc(-c3cc4c(cc3F)S(=O)(=O)C[C@H](N)C(=O)N4Cc3ccc(Cl)cc3)n2)C1 (stereo partly shown)"
  readout units: "µM"
  sign qualifier: ">"
  EC50: 10
- compound: "CC(C)(C)c1nnc(-c2cc3c(cc2F)S(=O)(=O)C[C@H](N)C(=O)N3Cc2cccc(Cl)c2)o1"
  readout units: "µM"
  sign qualifier: "="
  EC50: 3.21
- compound: "CC(C)(C)c1nnc(-c2ccc3c(c2)N(Cc2ccc(OCC4CC4)cc2)C(=O)[C@@H](N)CS3(=O)=O)o1"
  readout units: "µM"
  sign qualifier: "="
  EC50: 4.08
- compound: "N[C@H]1CS(=O)(=O)c2cc(F)c(-c3noc(N4CCOC5(CC5)C4)n3)cc2N(Cc2ccc(Cl)cc2)C1=O"
  readout units: "µM"
  sign qualifier: "="
  EC50: 0.0407
- compound: "N[C@H]1C[S+]([O-])c2cc(F)c(-c3noc(N4CCOC(C(F)(F)F)C4)n3)cc2N(Cc2ccc(Cl)cc2)C1=O (single isomer, unassigned; epimer b) [Example 212]"
  readout units: "µM"
  sign qualifier: "="
  EC50: 2.95

====

test system: primary human T-cells

- compound: "C[C@H](N)C(=O)N[C@H]1CS(=O)(=O)c2cc(F)c(-c3nnc(C(C)(C)C)o3)cc2N(Cc2ccc(Cl)cc2)C1=O [Example 262]"
  readout units: "µM"
  sign qualifier: "<"
  EC50: 0.162
- compound: "CC(C)(C)c1nnc(-c2cc3c(cc2F)S(=O)(=O)C[C@H](N)C(=O)N3Cc2ccc(OCCCCCCCCCCCN)cc2)o1 [Example 257]"
  readout units: "µM"
  sign qualifier: ">"
  EC50: 20
- compound: "N[C@H]1CS(=O)(=O)c2cc(F)c(-c3nnc(N4CC5(CCCO5)C4)o3)cc2N(Cc2ccc(Cl)cc2)C1=O [Example 505]"
  readout units: "µM"
  sign qualifier: "="
  EC50: 0.191
- compound: "CC1(Nc2nc(-c3cc4c(cc3F)S(=O)(=O)C[C@H](N)C(=O)N4Cc3ccc(Cl)cc3)no2)CC(F)(F)C1 [Example 201]"
  readout units: "µM"
  sign qualifier: "="
  EC50: 0.828
- compound: "N[C@H]1CS(=O)(=O)c2ccc(-c3nnc(N4CCOC(C(F)(F)F)C4)o3)cc2N(Cc2ccc(Cl)cc2)C1=O (stereo partly shown) [Example 412]"
  readout units: "µM"
  sign qualifier: "="
  EC50: 2.36
- compound: "N[C@H]1CS(=O)(=O)c2cc(F)c(-c3noc(C4(N)COC4)n3)cc2N(Cc2ccc(OC(F)(F)F)cc2)C1=O [Example 333]"
  readout units: "µM"
  sign qualifier: "="
  EC50: 0.714
- compound: "N[C@H]1CS(=O)(=O)c2ccc(-c3nnc(C4(N)CCCCC4)o3)cc2N(Cc2ccc(OC(F)(F)F)cc2)C1=O [Example 417]"
  readout units: "µM"
  sign qualifier: "="
  EC50: 0.328
- compound: "COC(=O)N1CC2CC2(c2nnc(-c3cc4c(cc3F)S(=O)(=O)C[C@H](N)C(=O)N4Cc3ccc(Cl)cc3)o2)C1 (stereo partly shown) [Example 183]"
  readout units: "µM"
  sign qualifier: "="
  EC50: 0.043
- compound: "CN1CC(n2cc(-c3cc4c(cc3F)S(=O)(=O)C[C@H](N)C(=O)N4Cc3ccc(Cl)cc3)cn2)CC(F)(F)C1 (stereo partly shown) [Example 281]"
  readout units: "µM"
  sign qualifier: ">"
  EC50: 10
- compound: "CC(C)(C)c1nnc(-c2cc3c(cc2F)S(=O)(=O)C[C@H](N)C(=O)N3Cc2ccccn2)o1 [Example 224]"
  readout units: "µM"
  sign qualifier: ">"
  EC50: 20
- compound: "N[C@H]1CS(=O)(=O)c2cc(F)c(-c3noc(N4CCOC5CC54)n3)cc2N(Cc2ccc(Cl)cc2)C1=O (stereo partly shown) [Example 192]"
  readout units: "µM"
  sign qualifier: "="
  EC50: 0.125
- compound: "N[C@H]1CS(=O)(=O)c2cc(F)c(-c3nnc(NC4CNCC(F)(F)C4)o3)cc2N(Cc2ccc(Cl)cc2)C1=O (stereo partly shown) [Example 489]"
  readout units: "µM"
  sign qualifier: "="
  EC50: 4.06
- compound: "CN(C)CCC(C)(C)c1nnc(-c2cc3c(cc2F)S(=O)(=O)C[C@H](N)C(=O)N3Cc2ccc(Cl)cc2)o1 [Example 140]"
  readout units: "µM"
  sign qualifier: "="
  EC50: 3.88
- compound: "CC(C)(F)c1nc(-c2cc3c(cc2F)S(=O)(=O)C[C@H](N)C(=O)N3Cc2ccc(F)cc2)no1 [Example 358]"
  readout units: "µM"
  sign qualifier: "="
  EC50: 9.45
- compound: "N[C@H]1CS(=O)(=O)c2ccc(-c3nnc(C4(N)CCOCC4)o3)cc2N(Cc2ccc(OC(F)(F)F)cc2)C1=O [Example 418]"
  readout units: "µM"
  sign qualifier: "="
  EC50: 5.74
- compound: "CC(C)(C)c1nnc(-c2cc3c(cc2O)S(=O)(=O)C[C@H](N)C(=O)N3Cc2ccc(Cl)cc2)o1 [Example 273]"
  readout units: "µM"
  sign qualifier: "="
  EC50: 7.21

====

Record: EC50 reported on primary human T-cells.
parameter measured: EC50

- compound: "CC(C)(C)n1nnc(-c2cc3c(cc2F)S(=O)(=O)C[C@H](N)C(=O)N3Cc2ccc(Cl)cc2)n1 [Example 8]"
  val: "0.0938 µM"
- compound: "Cn1nnc(-c2cc3c(cc2F)S(=O)(=O)C[C@H](N)C(=O)N3Cc2ccc(Cl)cc2)n1 [Example 16]"
  val: "2.83 µM"
- compound: "CC1CN(Cc2nnc(-c3cc4c(cc3F)SC[C@H](N)C(=O)N4Cc3ccc(Cl)cc3)o2)C1 [Example 507]"
  val: "8.04 µM"
- compound: "COC(=O)N1CC2CC(c3nc(-c4cc5c(cc4F)[S+]([O-])C[C@H](N)C(=O)N5Cc4ccc(OC(F)(F)C(F)F)cc4)no3)(C2)C1 (some centres unmarked) [Example 511]"
  val: "7.82 µM"
- compound: "CC(C)(C)c1nnc(-c2cc3c(cc2F)S(=O)(=O)C[C@H](N)C(=O)N3Cc2ccc(OC(F)F)cc2)o1 [Example 223]"
  val: "> 20 µM"

====

tested on: primary human T-cells; test: Proliferation assay after 5 days (CellTiter-Glo, CD3 stimulation; PBS counter screen); format: cell-based; details: Homo sapiens, T-cell, 120 h, CD3 stimulation, 5 days; normalized to reference compound A1 as stimulator control = 100%, DMSO neutral control; read-out: Emax proliferation (% activation)
A collection of molecules and their measured Emax

- molecule: "CC1(C#N)CCN(c2nnc(-c3cc4c(cc3F)S(=O)(=O)C[C@H](N)C(=O)N4Cc3ccc(Cl)cc3)o2)CC1 [Example 468]"
  Emax [%]: 127
- molecule: "N[C@H]1CS(=O)(=O)c2cc(F)c(-c3noc(C4(C(F)(F)F)CC4)n3)cc2N(Cc2ccc(OC(F)(F)F)cc2)C1=O [Example 344]"
  Emax [%]: 120
- molecule: "COC(=O)N1CC(c2nnc(-c3cc4c(cc3F)S(=O)(=O)C[C@H](N)C(=O)N4Cc3ccc(Cl)cc3)o2)CC(F)(F)C1 (stereo partly shown) [Example 163]"
  Emax [%]: 118
- molecule: "CC(C)(CCCN)c1nnc(-c2cc3c(cc2F)S(=O)(=O)C[C@H](N)C(=O)N3Cc2ccc(Cl)cc2)o1 [Example 149]"
  Emax [%]: 57
